Reported values of IC50 (µg/ml) with constrains for individual entries
target of assay: HIV Env of isolate Du422.1 (clade C) (HIV)
assay summary: cell-based or functional assay
Write the value in µg/mL as a bare number.

| binder | observed result |
| --- | --- |
| ePGDM9 (antibody, V domains shown) VH: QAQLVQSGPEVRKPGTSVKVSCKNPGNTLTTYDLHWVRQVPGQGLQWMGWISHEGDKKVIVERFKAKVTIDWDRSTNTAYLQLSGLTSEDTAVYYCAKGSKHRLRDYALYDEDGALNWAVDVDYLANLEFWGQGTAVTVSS VL: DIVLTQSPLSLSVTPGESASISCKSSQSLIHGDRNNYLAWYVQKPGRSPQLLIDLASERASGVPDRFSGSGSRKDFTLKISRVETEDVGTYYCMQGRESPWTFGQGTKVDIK | 13.3 |
| ePGDM5 (antibody, V domains shown) VH: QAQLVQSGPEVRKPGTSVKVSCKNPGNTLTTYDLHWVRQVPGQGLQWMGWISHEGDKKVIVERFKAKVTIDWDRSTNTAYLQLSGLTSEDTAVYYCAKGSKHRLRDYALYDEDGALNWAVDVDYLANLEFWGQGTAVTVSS VL: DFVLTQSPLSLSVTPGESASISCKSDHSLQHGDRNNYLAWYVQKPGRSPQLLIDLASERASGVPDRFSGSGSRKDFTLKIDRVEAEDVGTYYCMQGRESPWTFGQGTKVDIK | 8.64 |
| PGDM1400 (antibody, V domains shown) VH: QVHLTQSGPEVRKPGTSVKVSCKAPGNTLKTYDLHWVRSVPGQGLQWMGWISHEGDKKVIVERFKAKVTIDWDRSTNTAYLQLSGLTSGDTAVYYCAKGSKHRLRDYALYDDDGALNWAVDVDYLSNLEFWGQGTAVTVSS VL: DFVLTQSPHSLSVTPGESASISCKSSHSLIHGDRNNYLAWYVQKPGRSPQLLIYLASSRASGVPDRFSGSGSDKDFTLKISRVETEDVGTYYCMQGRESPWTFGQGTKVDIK | 33.4 |

Then there is this binder:
Quick one: IC50 (µg/ml) with constrains for ePGDM13 (antibody, V domains shown) VH: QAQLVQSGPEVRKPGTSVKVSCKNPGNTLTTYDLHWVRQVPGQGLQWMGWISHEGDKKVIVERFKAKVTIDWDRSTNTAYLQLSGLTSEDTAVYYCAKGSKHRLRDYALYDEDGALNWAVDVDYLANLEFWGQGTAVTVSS VL: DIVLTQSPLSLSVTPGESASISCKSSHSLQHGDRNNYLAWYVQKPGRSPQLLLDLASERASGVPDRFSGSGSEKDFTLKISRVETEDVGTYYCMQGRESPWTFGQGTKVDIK ?
27.5
